%Inh values for the molecules below.
- Test system: HIPK4;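 note: KINOMEscan kinase panel screen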
- Reported conditions: concentration: 1 μM, replicates: in singlicate; n = 1
Your answer should be a plain number; it is taken to be in %.

INPUT: Consider the molecule "CCc1nc(-c2cccc(C)c2)c(-c2ccncc2)s1" . State its measured %Inh.
OUTPUT: 0

INPUT: Given the molecule "Nc1nccc2scc(-c3ccc4c(c3)CCN4C(=O)Cc3ccccc3)c12" , write its reported %Inh.
OUTPUT: 0

INPUT: Supply reported %Inh belonging to this molecule: "COc1cccc(C2=C(Nc3cccc(C(=O)O)c3)C(=O)NC2=O)c1"
OUTPUT: 7

INPUT: Give %Inh for the following molecule: "COc1ccc(-c2cc3c(C)nc(N)nc3n([C@H]3CC[C@H](OCCO)CC3)c2=O)cn1"
OUTPUT: 0

INPUT: // Input: "CCC(=O)c1c(-c2ccccc2)c2cc(Cl)ccc2c(=O)n1Cc1cc(C(=O)NC2CC2)n(C)n1" . Output its %Inh only.
OUTPUT: 1

INPUT: Report %Inh, nothing else, for this molecule: "CCCNC(=O)Nc1ccc(Oc2ncnc3ccn(C)c23)cc1"
OUTPUT: 19
